Target: lysozyme (Gallus gallus)
Sequence (P00698 19-147): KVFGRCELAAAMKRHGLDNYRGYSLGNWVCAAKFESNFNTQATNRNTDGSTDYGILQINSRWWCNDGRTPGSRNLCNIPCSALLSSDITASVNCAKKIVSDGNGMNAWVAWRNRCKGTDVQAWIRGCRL
Test: SPR adsorption of lysozyme to SAMs / grafted polymer films
Assay type: binding
Conditions: mixed SAM —CONRR′/—CO2H
Where a SMILES comes first, the peptide text is derived from it.
Readings of % Lysoff (percent decrease in adsorbed protein during 10 minute PBS wash) for the listed molecules
Note: state the figure and append the unit.

Answered examples (4):
> print(dat)
                                   molecule  value.measured
1                              CN(C)C(=O)CN       350 ± 10%
2  Nc1ccc(O[C@@H]2O[C@H](CO)[C@@H](O[C@@H]3O[C@H](CO)[C@H](O)[C@H](O)[C@H]3O)[C@H](O)[C@H]2O)cc1       190 ± 16%
3                                 CNCCN(C)C       300 ± 30%
4     NC[C@H](O)[C@H](O)[C@H](O)[C@@H](O)CO        290 ± 3%

**Query** Tell me reported % Lysoff (percent decrease in adsorbed protein during 10 minute PBS wash) for NCC1COCCOCCOCCOCCOCCO1 (stereo not drawn) , tested with lysozyme (Gallus gallus).
**Result** 14 ± 1.3%

**Query** Form: Entry = CNCCN(C)C(=O)OC | System = lysozyme (Gallus gallus) | % Lysoff (percent decrease in adsorbed protein during 10 minute PBS wash) = ____
**Result** 150 ± 2%

**Query** Notebook: pull reported % Lysoff (percent decrease in adsorbed protein during 10 minute PBS wash) for lysozyme (Gallus gallus), entry CNCC(=O)N(C)C
**Result** 740 ± 9%

**Query** Find % Lysoff (percent decrease in adsorbed protein during 10 minute PBS wash) (lysozyme (Gallus gallus)) for the entry C1COCCOCCOCCOCCOCCN1
**Result** 72 ± 0.7%

**Query** Could you share what % Lysoff (percent decrease in adsorbed protein during 10 minute PBS wash) was measured for CC(=O)N1CCNCC1 , tested on lysozyme (Gallus gallus)?
**Result** 400 ± 5%

**Query** Which measured % Lysoff (percent decrease in adsorbed protein during 10 minute PBS wash) belongs to CN(C)C(=O)CNC(=O)CNC(=O)CN [H2N(Gly)3N(CH3)2] (H-Gly-Gly-Gly-NMe2) , tested on lysozyme (Gallus gallus)?
**Result** 630 ± 4%

**Query** Item CNCCN(C)C(=O)N(C)C with lysozyme (Gallus gallus) - % Lysoff (percent decrease in adsorbed protein during 10 minute PBS wash)?
**Result** 160 ± 10%

**Query** Find % Lysoff (percent decrease in adsorbed protein during 10 minute PBS wash) (lysozyme (Gallus gallus)) for the entry CN1CCNCC1
**Result** 170 ± 20%

**Query** Find the measured % Lysoff (percent decrease in adsorbed protein during 10 minute PBS wash): item N#CCC(N)=C(C#N)C#N , target or system lysozyme (Gallus gallus).
**Result** 370 ± 20%

**Query** Hi! What's the reported % Lysoff (percent decrease in adsorbed protein during 10 minute PBS wash) for OCCOCCN1CCNCC1 on lysozyme (Gallus gallus)?
**Result** 110 ± 5%

**Query** Short answer please: % Lysoff (percent decrease in adsorbed protein during 10 minute PBS wash), lysozyme (Gallus gallus), entry CNCC(=O)N(C)CC(=O)N(C)CC(=O)N(C)CC(=O)N(C)CC(=O)N(C)C [H(CH3)N(Sar)5N(CH3)2]
**Result** 14 ± 4%

**Query** Request: % Lysoff (percent decrease in adsorbed protein during 10 minute PBS wash), test system lysozyme (Gallus gallus), entry CNCCN(C)C(C)=O
**Result** 330 ± 15%
